tgt: UniProt P33261
Sequence (P33261 whole entry): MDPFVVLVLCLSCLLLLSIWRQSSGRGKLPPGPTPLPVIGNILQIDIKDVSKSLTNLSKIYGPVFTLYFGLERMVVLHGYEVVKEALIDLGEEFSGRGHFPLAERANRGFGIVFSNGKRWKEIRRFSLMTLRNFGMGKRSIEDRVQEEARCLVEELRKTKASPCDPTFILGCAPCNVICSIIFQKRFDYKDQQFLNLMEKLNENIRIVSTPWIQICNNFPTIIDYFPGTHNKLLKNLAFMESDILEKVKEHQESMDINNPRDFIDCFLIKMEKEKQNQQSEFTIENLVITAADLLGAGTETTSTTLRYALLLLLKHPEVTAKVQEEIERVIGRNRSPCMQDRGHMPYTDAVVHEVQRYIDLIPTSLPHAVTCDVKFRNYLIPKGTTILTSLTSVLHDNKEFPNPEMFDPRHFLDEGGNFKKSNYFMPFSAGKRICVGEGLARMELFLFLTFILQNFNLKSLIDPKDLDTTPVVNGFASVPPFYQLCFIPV
procedureText: Inhibition of hepatic CYP2C19 at 1 uM
Type: ADME
For each of the molecules below, state its inhibition at 1 µM.
Give bare numbers, in %.

Worked examples follow.
{"columns": ["molecule", "resultUnit", "inhibition at 1 µM"],
 "data": [
  ["Oc1ccc2cc(-c3cccc(-c4ccncc4)c3)ccc2c1", "%", 86],
  ["COc1ccc2cc(-c3cccc(Cn4ccnc4)c3)ccc2c1", "%", 95]
]}

Please report inhibition at 1 µM for every entry that follows.
1. COc1ccc2cc(-c3ccc(F)cc3)ccc2c1-c1cccnc1
2. C[C@]12CC[C@H](O)CC1=CC[C@@H]1[C@@H]2CC[C@]2(C)C(c3cccnc3)=CC[C@@H]12 [ABIRATERONE]
3. COc1ccc2cc(-c3ccc(F)cc3)ccc2c1Cn1ccnc1
4. CC(=O)N1CCN(c2ccc(OCC3COC(Cn4ccnc4)(c4ccc(Cl)cc4Cl)O3)cc2)CC1 (stereo unspecified) [KETOCONAZOLE]

output:
1. 68
2. 3
3. 93
4. 24

Source: ChEMBL document CHEMBL1140785
